Each entry below carries its reported pKd.
target_or_test_system: HRP3 PWWP (1-110) WT (UniProt Q9Y3E1 1-110)
Sequence (Q9Y3E1 1-110): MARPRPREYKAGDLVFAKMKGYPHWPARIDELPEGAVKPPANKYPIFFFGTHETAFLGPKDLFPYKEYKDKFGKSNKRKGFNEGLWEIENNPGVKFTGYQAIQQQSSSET
procedure_summary: MST; MST: 50 mM KCl, 10 mM Na cacodylate pH 6.5, 2 mM DTT, 200 nM FAM-dsDNA; ITC: 10 mM PBS pH 7.0, 50 mM NaCl, 2 mM b-ME, 20 C; nucleosome EMSA: 20 mM Tris pH 7.5
assay_setup: protein: recombinant; tags: none (His-SUMO removed); label: 5'-FAM (MST); blunt; self-complementary
Hey, just a heads up that pKd is the negative log base 10 of the concentration in molar.

>>> df
                                     binder  recorded_measurement
0  16-mer-GC (dsDNA) DNA 1: GCGCGCGCGCGCGCGC DNA 2: GCGCGCGCGCGCGCGC                  5.55

// next entry
Noted for 16-mer-TA (dsDNA) DNA 1: TATATATATATATATA DNA 2: TATATATATATATATA : its pKd reads 5.89

Data origin, for the record: paper PMC6547440
